The entries below are paired with their reported solubility (mole fraction).
settings: in n-methylformamide, 334.35 K
Give your answer as a number; write no unit.

# compound, solubility (mole fraction)
rows = [
    ("O=C(O)c1ccccc1C(=O)O", 0.229),
]

Okay, next one:
Exam item: Quote solubility (mole fraction) reported for "Cc1ccccc1C(=O)O" please.
Marked response: 0.434

---

conditions: in NMP, 327.25 K
value.type: solubility (mole fraction)
Give your answer as a number; write no unit.

Exam item: Quote solubility (mole fraction) reported for "O=C(O)c1ccccc1C(=O)O" please.
Marked response: 0.184

---

conditions: in DMF, 328.65 K
value.type: solubility (mole fraction)
Give your answer as a number; write no unit.

Exam item: Quote solubility (mole fraction) reported for "O=C(O)c1ccccc1C(=O)O" please.
Marked response: 0.481

Origin of values: BigSolDB 2.1
